molecular target: Bromodomain testis-specific protein (Homo sapiens); test: Inhibition of recombinant human N-terminal GST-tagged BRDT bromodomain-1 (22 to 138 residues) expressed in Escherichia coli expression system after 120 mins by TR-FRET assay
measuredProperty: IC50

The reported IC50 of the compound `Cc1cc(-c2nc3sc4c(c3c(=O)[nH]2)CCN(C)C4)cc(C)c1O` was > 100 µM

* * *

biological target: Bromodomain-containing protein 3 (Homo sapiens); assay: Inhibition of recombinant human N-terminal GST-tagged BRD3 bromodomain-1 (29 to 145 residues) expressed in Escherichia coli expression system after 120 mins by TR-FRET assay
Sequence (Q15059 whole entry, the tested form may be a part): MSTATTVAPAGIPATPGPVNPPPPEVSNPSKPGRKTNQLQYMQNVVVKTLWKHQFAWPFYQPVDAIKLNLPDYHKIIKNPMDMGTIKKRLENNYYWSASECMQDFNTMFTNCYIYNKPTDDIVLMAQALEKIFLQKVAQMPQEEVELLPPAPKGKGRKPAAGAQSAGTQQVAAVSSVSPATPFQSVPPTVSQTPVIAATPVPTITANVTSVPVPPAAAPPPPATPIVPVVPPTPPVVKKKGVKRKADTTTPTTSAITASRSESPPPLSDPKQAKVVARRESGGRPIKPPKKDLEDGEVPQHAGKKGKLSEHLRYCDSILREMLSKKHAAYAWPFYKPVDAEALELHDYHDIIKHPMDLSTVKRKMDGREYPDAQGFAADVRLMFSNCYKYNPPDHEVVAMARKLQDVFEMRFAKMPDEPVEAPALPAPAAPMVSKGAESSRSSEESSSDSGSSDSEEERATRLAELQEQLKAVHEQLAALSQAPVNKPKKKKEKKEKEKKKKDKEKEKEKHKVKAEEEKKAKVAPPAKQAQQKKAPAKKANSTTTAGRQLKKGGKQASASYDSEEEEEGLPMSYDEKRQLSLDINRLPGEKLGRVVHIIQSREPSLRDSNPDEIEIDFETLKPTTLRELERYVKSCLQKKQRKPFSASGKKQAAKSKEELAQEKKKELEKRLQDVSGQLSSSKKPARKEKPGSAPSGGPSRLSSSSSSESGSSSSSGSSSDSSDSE
pIC50: −log10 of the molar value.
measuredProperty: pIC50

According to the records, this compound `Cc1cc(-c2nc3sc4c(c3c(=O)[nH]2)CCN(C)C4)cc(C)c1O` displays pIC50 of < 4.00
